assay-overview: Aqueous solubility at pH 6.8
Format: physicochemical
Overview of recorded solubility for various compounds
Give the quantity in µg/mL, number only.

Some entries whose results are on file:
# item-smiles, solubility [µg/mL]
data = [
    ("C#CCOc1ccc2c(c1)c(-c1ccc(C(C)C)cc1)nc(=O)n2Cc1cccc(NC(=O)CN2CCN(CCOC)CC2)c1", 20),
    ("C#CCOc1ccc2c(c1)c(-c1ccc(C(C)C)cc1)nc(=O)n2C(C)C", 20),
    ("C#CCOc1ccc2c(c1)c(-c1ccc(C(C)C)cc1)nc(=O)n2Cc1cccc(NC(=O)CN2CCN(C)CC2)c1", 20),
]

As a next step, examine the compound that follows.
Note to self: solubility recorded for `C#CCOc1ccc2c(c1)c(-c1ccc(C(C)C)cc1)nc(=O)n2Cc1cccc(NC(=O)CN2CCN(CCCN(C)C)CC2)c1` was 100

====

target-desc: Extracellular calcium-sensing receptor (Homo sapiens, UniProt P41180)
Sequence (P41180 whole entry): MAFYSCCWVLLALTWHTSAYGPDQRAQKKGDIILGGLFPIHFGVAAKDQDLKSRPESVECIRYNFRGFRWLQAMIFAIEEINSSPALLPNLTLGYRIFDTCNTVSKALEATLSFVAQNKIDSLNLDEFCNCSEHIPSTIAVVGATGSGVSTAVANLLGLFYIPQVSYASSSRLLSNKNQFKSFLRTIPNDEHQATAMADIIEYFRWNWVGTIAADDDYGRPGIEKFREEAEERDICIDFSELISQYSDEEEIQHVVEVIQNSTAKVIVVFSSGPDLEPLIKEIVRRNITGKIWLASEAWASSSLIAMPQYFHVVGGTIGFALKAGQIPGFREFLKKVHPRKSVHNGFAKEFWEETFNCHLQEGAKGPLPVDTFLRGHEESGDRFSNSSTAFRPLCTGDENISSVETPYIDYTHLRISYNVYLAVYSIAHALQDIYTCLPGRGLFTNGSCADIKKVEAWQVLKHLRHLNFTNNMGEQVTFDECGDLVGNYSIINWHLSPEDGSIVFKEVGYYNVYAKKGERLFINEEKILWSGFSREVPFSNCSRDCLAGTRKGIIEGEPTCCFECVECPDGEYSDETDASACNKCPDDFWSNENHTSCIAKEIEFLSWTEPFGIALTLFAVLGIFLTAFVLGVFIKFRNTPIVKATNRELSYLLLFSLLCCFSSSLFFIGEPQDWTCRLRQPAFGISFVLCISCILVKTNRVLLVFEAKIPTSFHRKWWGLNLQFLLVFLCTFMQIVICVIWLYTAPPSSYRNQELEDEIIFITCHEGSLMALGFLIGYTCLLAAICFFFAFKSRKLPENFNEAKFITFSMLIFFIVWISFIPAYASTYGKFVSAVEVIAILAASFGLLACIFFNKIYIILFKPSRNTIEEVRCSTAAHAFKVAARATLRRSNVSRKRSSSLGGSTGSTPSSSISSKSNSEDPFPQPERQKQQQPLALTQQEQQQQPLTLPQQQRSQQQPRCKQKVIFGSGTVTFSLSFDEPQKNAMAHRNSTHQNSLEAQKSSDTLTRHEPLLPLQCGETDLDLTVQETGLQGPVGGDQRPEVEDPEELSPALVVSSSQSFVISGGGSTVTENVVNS
assay-overview: Antagonist activity at human CaSR expressed in CCL39 cells assessed as inhibition of extracellular calcium-induced intracellular calcium transient by FLIPR assay
pIC50: −log10 of the molar value.
experimental-endpoint: pIC50

Some entries whose results are on file:
# item-smiles, pIC50
records = [
    ("COC(=O)c1ccc(-c2nc(=O)n(C(C)C)c3ccc(OC)cc23)cc1", "< 4.52"),
    ("COc1ccc2c(c1)c(-c1ccc(C)cc1)nc(=O)n2C(C)C", "< 4.52"),
]

As a next step, examine the compound that follows.
Reported pIC50 (Extracellular calcium-sensing receptor (Homo sapiens, UniProt P41180)) for entry `COc1ccc2c(c1)c(-c1ccc(OC(C)C)cc1)nc(=O)n2C(C)C` is < 4.52

====

target-desc: Extracellular calcium-sensing receptor (Homo sapiens, UniProt P41180)
assay-overview: Antagonist activity at human CaSR expressed in CCL39 cells assessed as inhibition of extracellular calcium-induced intracellular calcium transient by FLIPR assay
Overview of recorded IC50 for various compounds
Give the quantity in µM, number only.

Note to self: IC50 recorded for `C=CCN(C)c1ccc2c(c1)c(-c1ccc(C(C)C)cc1)nc(=O)n2C(C)C` was 0.23

Note to self: IC50 recorded for `CC#CCOc1ccc2c(c1)c(-c1ccc(C(C)C)cc1)nc(=O)n2C(C)C` was 0.17

Note to self: IC50 recorded for `C#CCOc1ccc2c(c1)c(-c1ccc(C(C)C)cc1)nc(=O)n2C(C)C` was 0.009

Note to self: IC50 recorded for `CCCN(CCC)c1ccc2c(c1)c(-c1ccc(C(C)C)cc1)nc(=O)n2C(C)C` was 2.9

Note to self: IC50 recorded for `CC(C)c1ccc(-c2nc(=O)n(C(C)C)c3ccc(O)cc23)cc1` was 15.9

Note to self: IC50 recorded for `CC(C)Oc1ccc2c(c1)c(-c1ccc(C(C)C)cc1)nc(=O)n2C(C)C` was 2.7
